As shown below, each of these compounds has a reported MIC value.
Tested on: Bacillus pumilus
PROCEDURE_SUMMARY: Antibacterial activity against Bacillus pumilus PTCC 1114
Type: functional
METRIC_NAME: MIC (µg/mL)

>>> df
                                   compound  comparison_symbol  observed
0  O=C1c2c(Cl)cccc2NC2(C(=O)Nc3ccccc32)N1Nc1ccccc1 (stereo not given)                  =         4
1  CN(C)[C@@H]1C(O)=C(C(N)=O)C(=O)[C@@]2(O)C(O)=C3C(=O)c4c(O)cccc4[C@@](C)(O)[C@H]3C[C@@H]12 [TETRACYCLINE]                  =         8
2  O=C1c2c(Cl)cccc2NC2(C(=O)Nc3ccc([N+](=O)[O-])cc32)N1Nc1ccccc1 (stereo not given)                  <         2
3  O=C1c2c(Cl)cccc2NC2(C(=O)Nc3ccc(Br)cc32)N1Nc1ccccc1 (stereo not given)                  <         2
4  O=C1c2ccccc2NC2(C(=O)Nc3ccc([N+](=O)[O-])cc32)N1Nc1ccccc1 (stereo not given)                  =         4
